Target: Bromodomain-containing protein 4 (Homo sapiens)
Experiment: Inhibition of biotinylated H4 K5,8,12,16Ac peptide binding to GST-tagged BRD4 bromodomain1 (unknown origin) measured after 60 mins by AlphaScreen assay
label 1 if IC50 is below 8 µM. label 0 if not; exact matches included in label 0.

Cc1noc(C)c1Cn1c(=O)nc(-c2ccc(Cl)cc2)c2c3c(sc21)CC(C(C)(C)C)CC3 (stereo unspecified)	label 1
CC(C)(C)C1CCc2c(sc3c2c(-c2ccccc2)nc(=O)n3Cc2cnc(Cl)s2)C1 (stereo unspecified)	label 0
COc1ccc(-c2nc(=O)n(Cc3c(C)noc3C)c3sc4c(c23)CCC(C(C)(C)C)C4)cc1 (stereo unspecified)	label 0
Cc1noc(C)c1Cn1c(=O)nc(-c2cccc(Cl)c2)c2c3c(sc21)CC(C(C)(C)C)CC3 (stereo unspecified)	label 1
Cc1noc(C)c1Cn1c(=O)nc(-c2ccccc2Cl)c2c3c(sc21)CC(C(C)(C)C)CC3 (stereo unspecified)	label 1

---

Each entry below lists one item and its recorded inhibition value.
Biological target: Bromodomain-containing protein 4 (Homo sapiens)
Assay: Inhibition of biotinylated H4 K5,8,12,16Ac peptide binding to GST-tagged BRD4 bromodomain1 (unknown origin) at 100 uM measured after 60 mins by AlphaScreen assay relative to control
PARAMETER: inhibition (%)

COC(=O)C1CCc2c(sc3c2c(-c2ccccc2)nc(=O)n3Cc2c(C)noc2C)C1 (centres undefined)	19
CNC(=O)Cn1c(=O)nc(-c2ccccc2)c2c3c(sc21)CCCC3	38.5
Cn1c(=O)nc(-c2ccccc2)c2c3c(sc21)CCCC3	42.6
CC(=O)C(C)n1c(=O)nc(-c2ccccc2)c2c3c(sc21)CCCC3 (centres undefined)	30
